# Test system: OVCAR-8 ovarian
# Test: NCI-60 one-dose screen, 48 h (100 = growth as untreated, 0 = no growth, -100 = all killed)
# Test Parameters: 10 µM unless noted
Compounds without any hit were thinned out: in the full panel of roughly 83,000, 20% have a hit.
// class assignment uses growth with these ranges: LOW = under 50%, MEDIUM = from 50% up to 90%, HIGH = 90% and over

>>> assigned_class("CCN1C(=O)N(CC)C2C1NC(=S)N2/N=C/C=C/c1ccccc1OC (stereo unspecified)")
"LOW"
>>> assigned_class("CCOC(=O)c1sc(-c2ccc(OS(=O)(=O)C[C@]34CCC(CC3=O)C4(C)C)c(C=O)c2)nc1C")
"LOW"
>>> assigned_class("Nc1nc2c(ncn2[C@@H]2O[C@H](CS)[C@@H](O)[C@H]2O)c(=O)[nH]1")
"HIGH"
>>> assigned_class("CCCCCCc1cc2cc(-c3nc4ccccc4[nH]3)c(=Nc3ccccc3C)oc2cc1O")
"MEDIUM"
>>> assigned_class("CCOC(=O)c1c(Cl)c2c(n1Cc1ccccc1)-c1oncc1CCC2")
"MEDIUM"
>>> assigned_class("CCCCNc1nc(NC(C)(C)C)nc(NC(C)(C)C)n1")
"MEDIUM"
>>> assigned_class("CCOC(=O)c1c(C=O)nc2ccccc2c1/C=C/c1ccc(Cl)cc1")
"HIGH"
>>> assigned_class("C=C(C)CCC(C)N1CCC(N2CCC(C(=O)NCCc3ccccc3)CC2)CC1 (stereo unspecified)")
"MEDIUM"
>>> assigned_class("CSc1nc2c(c(=O)[nH]1)N=C1c3ccccc3C(=O)C1C(c1ccccc1)N2 (stereo unspecified)")
"MEDIUM"
>>> assigned_class("c1ccc2cc3c(Nc4ccc(N5CCOCC5)cc4)ccnc3cc2c1")
"HIGH"
>>> assigned_class("Cc1ccc(NCCNCC(O)CO)c2c(=O)c3ccccc3sc12 (stereo unspecified)")
"LOW"
>>> assigned_class("CN(C)/C=C1\\SC(=Nc2ccc(Cl)cc2)NC1=O")
"HIGH"
>>> assigned_class("COc1ccc(C2Nc3nc(OC)n(C)c(=O)c3N=C3c4ccccc4C(=O)C32)cc1 (stereo unspecified)")
"HIGH"
>>> assigned_class("COc1cc2nc(-c3cnc(N(C)C)nc3)nc(NC3CCN(Cc4ccccc4)CC3)c2cc1OC")
"LOW"
>>> assigned_class("COc1cccc2c1C=C1CCCCC3=Cc4c(OC)cccc4OC13O2")
"MEDIUM"
>>> assigned_class("O=c1oc2ccc(F)cc2c(=O)n1-c1ccc(I)cc1F")
"LOW"
>>> assigned_class("COc1ccccc1N1C(=N)S/C(=C\\c2ccc(OCc3ccccc3F)cc2)C1=O")
"MEDIUM"
>>> assigned_class("COC(=O)c1c2c(c(C)[n+]([O-])c1C)C(=O)C=C(NCc1ccc(F)c(F)c1)C2=O")
"LOW"

====

# Tested on: A498 renal
# Test: NCI-60 one-dose screen, 48 h (100 = growth as untreated, 0 = no growth, -100 = all killed)
# Test Parameters: 10 µM unless noted
This is part of a sample that, as a whole, favours compounds with a hit. Of some 83,000 tested, about 20% had one in any assay.
Measured Metric: growth (%)

>>> measured_number("Cc1nc(Nc2cn[nH]c2C(=O)Nc2ccc(CN3CCN(C)CC3)cc2)c2ccsc2n1")
66.7
>>> measured_number("CC/C=C\\C[C@H](O)C/C=C1/C(=O)C=C[C@@H]1C/C=C\\CCCC(=O)OCCS(=O)(=O)c1ccccc1")
115
>>> measured_number("O=C(NC(=S)Nc1cccc(NC(=S)NC(=O)c2ccccc2)c1)c1ccccc1")
104

====

# System: 786-0 renal
# Test: NCI-60 one-dose screen, 48 h
# Test Parameters: 10 µM unless noted
Compounds without any hit were thinned out: in the full panel of roughly 83,000, 20% have a hit. Activity calls are given as the source filed them. The calls were made as follows: active = growth percent below 10; inactive = the rest.
Outcomes: True = active, False = inactive

>>> assigned_class("O=C(Nc1nc2c(s1)CCc1c-2c(Br)n(Cc2ccccc2)c1Br)c1ccccc1")
"False"
>>> assigned_class("Oc1c(C(Nc2ccccn2)c2cccc(Oc3ccccc3)c2)ccc2cccnc12 (stereo not given)")
"True"
>>> assigned_class("Fc1cccc(COc2ccc(Nc3ncnc4onc(-c5ccccc5)c34)cc2)c1")
"True"
>>> assigned_class("COc1ccc(Br)c(/C=C2\\SC(=Nc3ccc(O)cc3)NC2=O)c1")
"False"
>>> assigned_class("COc1ccc(C2Nc3ncnc(N)c3N=C3c4ccccc4C(=O)C32)cc1 (stereo not given)")
"False"
>>> assigned_class("CC(C)C[C@H](C(=O)N[C@H](C(N)=O)C(C)C)N1CC=CCN(OCc2ccccc2)S1(=O)=O")
"False"
>>> assigned_class("CCOC(=O)C1=C(C)c2ccc(OC)c(OC)c2C1")
"False"
>>> assigned_class("CCN1C(=O)N(CC)C2Nn3c(s/c(=C\\c4ccccc4F)c3=O)=NC21 (stereo not given)")
"False"
>>> assigned_class("CCOC(=O)c1sc(-c2ccc(OS(=O)(=O)c3ccc(Br)s3)c(C=O)c2)nc1C")
"True"
>>> assigned_class("COc1ccc(-c2nsc3c2NC(=O)CC3c2ccc3c(c2)OCCO3)cc1 (stereo not given)")
"False"
>>> assigned_class("CCCSC1=NC2C(N(CC)C(=O)N2CC)N1/N=C/C=C/c1ccccc1[N+](=O)[O-] (stereo not given)")
"False"
>>> assigned_class("CSc1nc2c(c(=O)[nH]1)N=C1c3ccccc3C(=O)C1C(c1ccc(F)cc1)N2 (stereo not given)")
"False"
>>> assigned_class("COC(=O)c1c2c(c(C)[n+]([O-])c1C)C(=O)C=C(NCc1ccc(F)c(F)c1)C2=O")
"True"
>>> assigned_class("COc1c2ccoc2c(/C=C/C=O)c2oc(-c3ccccc3)cc(=O)c12")
"False"
>>> assigned_class("O=C1C(Cl)=C(NCc2ccco2)C(=O)c2ccccc21")
"False"
>>> assigned_class("O=C(c1nc2ccccc2[nH]1)C1C(c2cccc([N+](=O)[O-])c2)C2CC3CCCCC3N2[C@@]12C(=O)Nc1cc(Cl)ccc12 (stereo not given in full)")
"False"
>>> assigned_class("CCCCNc1nc(NC(C)(C)C)nc(NC(C)(C)C)n1")
"False"
>>> assigned_class("Cc1ccc2cccc(Oc3ccc(Nc4ncnc5onc(-c6ccccc6)c45)cc3)c2n1")
"False"
>>> assigned_class("COc1cc(-c2c3c(c(Br)n2Cc2ccccc2)-c2nc(N)sc2CC3)cc(OC)c1OC")
"False"
>>> assigned_class("Cc1nc2ccccc2c(/C=C/c2ccccc2)c1C(=O)/C=C/c1ccc(Cl)cc1")
"True"

====

# System: KM12 colon
# Test: NCI-60 one-dose screen, 48 h (100 = growth as untreated, 0 = no growth, -100 = all killed)
# Test Parameters: 10 µM unless noted
About 83,000 compounds went through this panel and 20% of them were active in at least one assay; those are over-represented in the sample as a whole.
Consider the following compounds and their measured growth readings.
Measured Metric: growth (%)

>>> measured_number("CC(=O)n1cc(-c2c[nH]c3ccccc23)c(-c2ccc(Cl)cc2)n1")
84.8
>>> measured_number("COc1ccc(-c2cn[nH]c2-c2ccc(OC)c(O)c2)cc1")
44.8
>>> measured_number("O=S(=O)(Nc1ncccn1)c1ccc(NC2Nc3nc4ccccc4nc3S2)cc1 (configuration not stated)")
106
>>> measured_number("COc1cc(C(=O)O/N=C(\\N)Cc2cccc3ccccc23)cc(OC)c1OC")
-68.4
>>> measured_number("CN1CCN(Cc2ccc(NC(=O)c3[nH]ncc3Nc3cc(OC4CCCC4)ncn3)cc2)CC1")
21.9
>>> measured_number("CCOC(=O)C1=C(C)c2ccc(OC)c(OC)c2C1")
101
>>> measured_number("CCOC(=O)c1c2c(c(C)n1Cc1ccc(OC)cc1)-c1oncc1CC2")
87.9
>>> measured_number("COc1ccc(CCN2C(=O)CCSC2=S)cc1")
0.314
>>> measured_number("COc1cc(CNC(=O)c2ccsc2Nc2ccnc(C(F)(F)F)c2)ccc1O")
104
>>> measured_number("c1ccc2cc3c(Nc4ccc(N5CCOCC5)cc4)ccnc3cc2c1")
102
>>> measured_number("CSc1nc2c(c(=O)[nH]1)N=C1c3ccccc3C(=O)C1C(c1ccc(F)cc1)N2 (configuration not stated)")
41.7
>>> measured_number("CN(C)c1ccc(N=Cc2ccc(N3CCOCC3)cc2)cc1")
59.5
>>> measured_number("c1ccc2c(c1)oc1cc3sccc3nc12")
108
>>> measured_number("O=C(NC1CCCCC1)C(c1cccs1)N(CCc1ccccc1)C(=O)c1ccco1 (configuration not stated)")
98
>>> measured_number("CC1=C(C(=O)OCC2CCN(C(=O)OC(C)(C)C)CC2)[C@H](c2cccc(Br)c2)C2=C(CC(C)(C)CC2=O)N1")
25
>>> measured_number("CCOc1ccc(-c2nonc2NC(=O)c2cccc(C)c2)cc1OCC")
62.6
>>> measured_number("COc1ccc(-c2cn[nH]c2-c2cc(OC)c(OC)c(OC)c2)cc1OCc1ccccc1")
14.7
>>> measured_number("CCOC(=O)c1sc(-c2ccc(OS(=O)(=O)c3ccc(Br)s3)c(C=O)c2)nc1C")
6.21
>>> measured_number("O=C1NC(=S)NC(=O)C1=Cc1cn(Cc2cn(Cc3cccc4ccccc34)nn2)c2ccccc12")
97.2
>>> measured_number("O=C(Nc1ncc(Cc2cccc(C(F)(F)F)c2)s1)C1COc2ccccc2O1 (configuration not stated)")
76
>>> measured_number("COc1ccc(C2=Nn3c(NN)nnc3SC2)cc1")
101
>>> measured_number("CC(C)[C@H](NC(=O)Cn1cc(C(=O)O)nn1)C(=O)O")
103
